Would you kindly list inhibition for each of these compounds?
- Measurement target: Insulin receptor (Homo sapiens);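 further: reported values are averages of replicate inhibition measurements against the insulin receptor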
- Condition summary: at 0.1 µM
Numbers only, in %.

Take a look at these entries with their results.
COc1cc(/C=N/Nc2ncnc3c2cnn3C(C)C)ccc1O 2.75
COc1ccc(-c2nn3ncccc3c2-c2ccnc(Nc3cccc(C(F)(F)F)c3)n2)cc1 0.4
ON=C1CCc2cc(-c3nc(C4CCNCC4)[nH]c3-c3ccncc3)ccc21 1.61
COc1cc2ncnc(Nc3ccc(C)c(O)c3)c2cc1OC 5.04
Cc1ccc(Nc2ccnc(Nc3cccc(C(N)=O)c3)n2)cc1O 3.53

From here, focus on the item given below.
Query :: Look up inhibition for this compound: NS(=O)(=O)c1cccc(Nc2cc(-c3ccc(F)cc3)n[nH]2)c1
Result :: 0.86
